# tgt: PI3K beta (Homo sapiens)
# Construct: for the full-length p110-b subunit are generated and fused by overlapping PCR; p85(iSH2) fusion partner (see partner chain) (N); His tag (C); Tn5 (Trichoplusia ni) or TiniPro insect cells
# Sequence (P42338 with tags, fused parts or gaps limits assumed): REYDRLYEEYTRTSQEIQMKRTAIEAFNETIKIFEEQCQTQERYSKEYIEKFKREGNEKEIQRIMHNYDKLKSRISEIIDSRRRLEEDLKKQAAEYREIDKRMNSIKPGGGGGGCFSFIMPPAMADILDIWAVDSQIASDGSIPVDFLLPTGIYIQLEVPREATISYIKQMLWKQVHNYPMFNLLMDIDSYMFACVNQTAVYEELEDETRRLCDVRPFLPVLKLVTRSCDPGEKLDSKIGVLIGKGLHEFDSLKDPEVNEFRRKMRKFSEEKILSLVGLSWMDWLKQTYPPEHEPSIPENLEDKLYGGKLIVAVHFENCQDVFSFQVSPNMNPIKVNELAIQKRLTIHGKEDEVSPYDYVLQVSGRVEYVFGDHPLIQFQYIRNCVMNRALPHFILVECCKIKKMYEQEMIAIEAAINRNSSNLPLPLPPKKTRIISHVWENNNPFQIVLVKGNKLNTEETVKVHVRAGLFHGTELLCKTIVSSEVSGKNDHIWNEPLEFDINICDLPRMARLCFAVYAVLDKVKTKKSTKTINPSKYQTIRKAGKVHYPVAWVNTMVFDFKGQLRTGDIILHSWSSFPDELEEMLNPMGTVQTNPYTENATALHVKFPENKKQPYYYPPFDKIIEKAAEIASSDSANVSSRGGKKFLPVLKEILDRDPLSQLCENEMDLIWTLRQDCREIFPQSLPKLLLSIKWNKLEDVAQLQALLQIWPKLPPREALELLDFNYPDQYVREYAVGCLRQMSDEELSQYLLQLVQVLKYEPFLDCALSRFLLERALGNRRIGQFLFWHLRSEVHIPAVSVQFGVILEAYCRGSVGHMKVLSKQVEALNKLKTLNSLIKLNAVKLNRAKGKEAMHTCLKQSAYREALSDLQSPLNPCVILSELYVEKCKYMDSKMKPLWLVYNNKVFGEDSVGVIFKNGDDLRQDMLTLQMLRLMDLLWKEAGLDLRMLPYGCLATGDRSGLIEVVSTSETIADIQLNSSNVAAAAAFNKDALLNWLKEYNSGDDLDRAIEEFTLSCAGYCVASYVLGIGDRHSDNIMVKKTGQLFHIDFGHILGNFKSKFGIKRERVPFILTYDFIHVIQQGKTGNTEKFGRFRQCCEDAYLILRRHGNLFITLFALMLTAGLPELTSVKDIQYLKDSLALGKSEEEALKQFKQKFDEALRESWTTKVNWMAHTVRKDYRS
# protocol: PI3K beta kinase assay (Kinase-Glo luminescence)
value.kind: IC50 (nM)

[1] CNC(=O)c1ccc(-c2ccc3ncc4c(c3c2)n(-c2cn(C)nc2C)c(=O)n4C)cn1
[2] Cc1nn(C)cc1-n1c(=O)[nH]c2cnc3ccc(-c4cnc(N(C)C)nc4)cc3c21
[3] CCN1C(=O)OCc2ncc(-c3ccc4ncc5c(c4c3)n(-c3cn(C)nc3C)c(=O)n5C)cc21
[4] Cc1nn(C)cc1-n1c(=O)n(C)c2cnc3ccc(-c4cncc(S(C)(=O)=O)c4)cc3c21
[5] Cc1nn(CC(=O)N(C)C)c(C)c1-n1c(=O)n(C)c2cnc3ccc(-c4cnc(N)c(C(F)(F)F)c4)cc3c21
[in] Ascending by IC50, please. Kindly provide the labels arranged according to the requested ordering.
[out] 3, 4, 2, 1, 5

[I] CCn1cc(-n2c(=O)n(C)c3cnc4ccc(-c5cnc(COC)c(OC)c5)cc4c32)c(C)n1
[II] CCNc1ncc(-c2ccc3ncc4c(c3c2)n(-c2cn(C)nc2C)c(=O)n4C)cc1COC
[III] CNc1ncc(-c2ccc3ncc4c(c3c2)n(-c2cn(C)nc2C)c(=O)n4C)cc1COC
[IV] CNc1cc(-c2ccc3ncc4c(c3c2)n(-c2cn(C)nc2C)c(=O)n4C)cnc1COC
[in] Falling order of IC50, please. Give me the labels in the order the question wants.
[out] I, IV, II, III

Recorded values, source patent US20140005163A1.
